System: HOP-92
Method: NCI tumour cell line growth inhibition, 48 h
Activity calls are given as the source filed them. Rule as the data show it: active = GI50 up to about 1.1 µM and inactive = higher.
# output must be one of T (active), F (inactive)

Compound: C=C(Cl)/C(=C/Cl)CCC(Br)C(C)(C)Cl.C=C(Cl)/C(=C\Cl)CCC(Br)C(C)(C)Cl (centres undefined)
Test target: HOP-92
Assigned label: F

Test call, this compound: C=CC(Cl)(CBr)CCC(Br)C(C)(C)Cl (centres undefined) F

Which outcome did this test record for the compound Cc1cccc(C(C)(C)C)c1NC(=O)CC1C(=O)Nc2ccccc2S1(=O)=O (centres undefined) ? F

Could you kindly confirm the outcome this assay logged for Cc1c(Cl)ccc2c1NC(=O)C2(O)CC(=O)c1ccc(Cl)cc1Cl (centres undefined) ? F

How did this test come out for `N/C(=N\O)N/N=C/c1cc(Br)cc(Br)c1O` ? F

Hello, I am checking results. What call was entered for COc1ccc(C2C(Cl)C(=O)N2NC(=O)c2ccc(NC(C)=O)cc2)cc1 (centres undefined) ? F

Can you look up the reported call for COc1cc2c3c(c1OC)-c1cc4c(cc1CC3(C#N)N(C(=O)c1ccccc1)CC2)OCO4 (centres undefined) for me? F

Lab log entry: CCOC(=O)C(C#N)(Cc1c[nH]c2ccccc12)NC(C)=O (centres undefined) — outcome as called in the assay? F

Please share the test call associated with `C(=C\Nc1ccc(-c2ccccc2)cc1)/C=N/c1ccc(-c2ccccc2)cc1` . F

What outcome does the record of this test show for `S=C(N/N=C(/c1ccccc1)c1ccccn1)Nc1ccccc1Cl` ? T

Per the records of this test, what outcome belongs to `Cc1nc(N)nc(N)c1-c1ccc(Cl)c(Cl)c1` ? F

Would you mind telling me which call this test gave `O=[N+]([O-])c1ccc(Oc2c(Cl)cc(S(=O)(=O)N/C(=N\O)Nc3ccc(Cl)cc3)cc2Cl)cc1` ? F
